- Experimental System: T1, human CD73 on COR-L23 lung carcinoma cells (human) (UniProt P21589)
- T1 sequence: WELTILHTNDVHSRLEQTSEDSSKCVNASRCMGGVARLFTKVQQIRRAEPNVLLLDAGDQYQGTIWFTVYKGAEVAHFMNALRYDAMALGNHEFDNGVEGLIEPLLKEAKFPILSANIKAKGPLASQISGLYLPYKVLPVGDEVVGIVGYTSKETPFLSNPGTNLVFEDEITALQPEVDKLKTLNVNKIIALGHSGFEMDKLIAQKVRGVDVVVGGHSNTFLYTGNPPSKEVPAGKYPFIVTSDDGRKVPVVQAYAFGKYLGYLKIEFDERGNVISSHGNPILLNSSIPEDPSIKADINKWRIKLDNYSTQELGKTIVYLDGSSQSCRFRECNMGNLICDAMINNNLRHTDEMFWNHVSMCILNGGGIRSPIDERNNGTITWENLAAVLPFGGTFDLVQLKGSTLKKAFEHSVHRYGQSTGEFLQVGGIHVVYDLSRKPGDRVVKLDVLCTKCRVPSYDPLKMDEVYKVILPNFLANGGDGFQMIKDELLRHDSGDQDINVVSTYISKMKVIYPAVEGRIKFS
- Assay Comment: cell-based or functional assay
Entries and their Max Inhib. (projected maximal inhibition at saturating antibody)
Assay Metric: Max Inhib. (projected maximal inhibition at saturating antibody) (%)

[
  {
    "Binder": "TB19/H19 (bispecific antibody, part only; not given: H19 arm; constant regions, V domains shown, part only) VH: QEQLQESGPGLVKPSETLSLTCTVSGGSIRNNYYNWIRQPAGKGLEWIGRIYISGTTNSNPSLKSRVTMSIDTSKNQFSLKLSSVTAADTAIYYCAREHYVSGTSLDNWGQGTLVTVSS VL: EIVMTQSPTTLSLSPGERATLSCRASQSVNTNYFSWYQQKPGLTPRLLIYGTSTRATGIPARFSGSGSGTDFTLTISSLQPEDFGIYYCQQDYNLPYTFGQGTYLEIK",
    "Reported Value": 98
  },
  {
    "Binder": "E3.2/TB19 (bispecific antibody, part only; not given: E3.2 arm; constant regions, V domains shown, part only) VH: QEQLQESGPGLVKPSETLSLTCTVSGGSIRNNYYNWIRQPAGKGLEWIGRIYISGTTNSNPSLKSRVTMSIDTSKNQFSLKLSSVTAADTAIYYCAREHYVSGTSLDNWGQGTLVTVSS VL: EIVMTQSPTTLSLSPGERATLSCRASQSVNTNYFSWYQQKPGLTPRLLIYGTSTRATGIPARFSGSGSGTDFTLTISSLQPEDFGIYYCQQDYNLPYTFGQGTYLEIK",
    "Reported Value": 97
  }
]
